Molecular target: T1, human MSLN-FL-his protein (human, UniProt Q13421 296-580)
T1 construct: Self-made in HEK293E cells; also called human MSLN full-length protein; hMSLN-FL-his; not shown: His tag
T1 sequence (Q13421 other isoform, or with tags, fused parts or gaps): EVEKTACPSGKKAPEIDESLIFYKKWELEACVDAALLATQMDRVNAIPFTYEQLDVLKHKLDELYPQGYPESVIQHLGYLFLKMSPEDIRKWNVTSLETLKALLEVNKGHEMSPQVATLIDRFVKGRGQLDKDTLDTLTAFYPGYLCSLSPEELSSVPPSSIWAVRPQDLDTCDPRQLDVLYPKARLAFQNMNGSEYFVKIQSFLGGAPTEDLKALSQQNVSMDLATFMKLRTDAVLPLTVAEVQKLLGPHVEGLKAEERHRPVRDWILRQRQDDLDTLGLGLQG
Assay: ELISA on coated antigen, antibody 1 nM
// OD450 lookup, one value per entry
Return type: number; implicit unit OD450.

Query: // Input: S009-F3.16.1 (antibody, human IgG1, kappa, V domains shown, Human-murine chimeric antibody: murine VH/VL on human IgG1 heavy and kappa light constant regions) VH: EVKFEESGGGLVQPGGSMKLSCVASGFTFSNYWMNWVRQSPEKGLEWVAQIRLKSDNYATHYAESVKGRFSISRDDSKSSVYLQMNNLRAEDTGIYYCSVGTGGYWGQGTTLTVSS VL: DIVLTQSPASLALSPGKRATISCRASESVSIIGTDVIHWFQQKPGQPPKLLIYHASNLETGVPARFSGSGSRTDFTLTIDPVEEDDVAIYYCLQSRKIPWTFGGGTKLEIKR . Output its OD450 only.
Response: 0.08

Query: Supply reported OD450 belonging to this binder: S009-F3.80.22 (antibody, human IgG1, kappa, V domains shown, Human-murine chimeric antibody: murine VH/VL on human IgG1 heavy and kappa light constant regions) VH: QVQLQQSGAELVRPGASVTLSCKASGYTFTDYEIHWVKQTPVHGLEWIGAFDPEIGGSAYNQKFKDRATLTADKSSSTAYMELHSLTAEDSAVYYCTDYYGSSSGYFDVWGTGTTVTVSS VL: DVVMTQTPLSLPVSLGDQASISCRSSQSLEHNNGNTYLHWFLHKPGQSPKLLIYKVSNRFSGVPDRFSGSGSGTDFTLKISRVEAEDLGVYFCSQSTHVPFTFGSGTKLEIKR
Response: 1.97

Query: Give OD450 for the following binder: S009-F3.45.21 (antibody, human IgG1, kappa, V domains shown, Human-murine chimeric antibody: murine VH/VL on human IgG1 heavy and kappa light constant regions) VH: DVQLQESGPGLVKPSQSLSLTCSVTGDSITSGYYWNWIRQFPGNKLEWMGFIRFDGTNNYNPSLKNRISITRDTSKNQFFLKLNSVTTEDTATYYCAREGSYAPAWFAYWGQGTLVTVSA VL: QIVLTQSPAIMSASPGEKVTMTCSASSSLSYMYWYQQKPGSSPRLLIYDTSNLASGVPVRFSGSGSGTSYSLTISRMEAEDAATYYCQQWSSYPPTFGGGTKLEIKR
Response: 1.75
